biological target: fMet-Leu-Phe receptor (Homo sapiens); assay: Inhibitory activity against Human formylpeptide receptor (FPR) of human leukemia HL-60 cells; assay type: cell-based
Can you tell me IC20 for the items I'm about to list?
Write the value in nM as a bare number.

Reported IC20, compound CC[C@@H]1NC(=O)[C@H](CC2CCCCC2)N(C)C(=O)[C@H](C(C)C)N(C)C(=O)[C@H](CC(C)C)N(C)C(=O)[C@H](CC(C)C)N(C)C(=O)[C@@H](C)NC(=O)[C@H](C)NC(=O)[C@@H](CC(C)C)N(C)C(=O)[C@@H](C(C)C)NC(=O)[C@@H](CC(C)C)N(C)C(=O)CN(C)C1=O : ____
1690

Please look up its IC20: C/C=C/C[C@@H](C)[C@@H](O)[C@H]1C(=O)N[C@@H](CCC)C(=O)N(C)CC(=O)N(C)[C@H](CC(C)C)C(=O)N[C@H](C(C)C)C(=O)N(C)[C@H](CC(C)C)C(=O)N[C@@H](C)C(=O)N[C@H](C)C(=O)N(C)[C@@H](CC(C)C)C(=O)N[C@@H](CC(C)C)C(=O)N(C)[C@@H](C(C)C)C(=O)N1C
660

Give the measured IC20 of C/C=C/C[C@@H](C)[C@@H](O)[C@H]1C(=O)N[C@@H](CCC)C(=O)N(C)CC(=O)N(C)[C@H](CC(C)C)C(=O)N[C@@H](CCC)C(=O)N(C)[C@H](CC(C)C)C(=O)NC(C)C(=O)N[C@H](C)C(=O)N(C)[C@@H](CC(C)C)C(=O)N(C)[C@@H](CC(C)C)C(=O)N(C)[C@@H](C(C)C)C(=O)N1C (some centres not stated) .
200

Recorded IC20 of C/C=C/C[C@@H](C)[C@@H](O)[C@H]1C(=O)N[C@@H](CC)C(=O)N(C)CC(=O)N(C)[C@H](CC(C)C)C(=O)N[C@H](C(C)C)C(=O)N(C)[C@H](CC(C)C)C(=O)N[C@@H](C)C(=O)N[C@H](C)C(=O)N[C@@H](CC(C)C)C(=O)N(C)[C@@H](CC(C)C)C(=O)N(C)[C@@H](C(C)C)C(=O)N1C , please.
530

Please look up its IC20: C/C=C/C[C@@H](C)[C@@H](O)[C@H]1C(=O)N[C@@H](CC)C(=O)N(C)CC(=O)N(C)[C@H](CC(C)C)C(=O)N[C@H](C(C)C)C(=O)N(C)[C@H](CC(C)C)C(=O)N[C@@H](C)C(=O)N[C@H](C)C(=O)N(C)[C@@H](CC(C)C)C(=O)N(C)[C@@H](CC(C)C)C(=O)N(C)[C@H]([C@H](C)CC)C(=O)N1C
290

Endpoint output: IC20 of CC/C=C/C[C@@H](C)[C@@H](O)[C@H]1C(=O)N[C@@H](CCC)C(=O)N(C)CC(=O)N(C)[C@H](CC(C)C)C(=O)N[C@H](C(C)C)C(=O)N(C)[C@H](CC(C)C)C(=O)N[C@@H](C)C(=O)N[C@H](C)C(=O)N(C)[C@@H](CC(C)C)C(=O)N(C)[C@@H](CC(C)C)C(=O)N(C)[C@@H](C(C)C)C(=O)N1C . Value?
2600

Recorded IC20 for CC/C=C/C[C@@H](C)[C@@H](O)[C@H]1C(=O)N[C@@H](C(C)C)C(=O)N(C)CC(=O)N(C)[C@H](CC(C)C)C(=O)N[C@H](C(C)C)C(=O)N(C)[C@H](CC(C)C)C(=O)N[C@@H](C)C(=O)N[C@H](C)C(=O)N(C)[C@@H](CC(C)C)C(=O)N(C)[C@@H](CC(C)C)C(=O)N(C)[C@@H](C(C)C)C(=O)N1C , please?
3900
